biological target: T1, Recombinant human Glypican-3 (human, UniProt P51654 25-559, limits assumed, randomly biotinylated via Lysine residues (EZ-Link Sulfo-NHS-LC-LC-Biotin) where captured on Neutravidin; not biotinylated where used as competitor in solution); experiment: SPR (Biacore T100), Glypican-3 amine-coupled to a CM5 chip, mutein as analyte, evaluated conc 40/120 nM, 1:1 model
T1 construct: Bought protein; The biotinylated and the non-biotinylated preparation are written as one molecule; also called GPC3; GPC-3
T1 sequence (P51654 25-559 limits assumed): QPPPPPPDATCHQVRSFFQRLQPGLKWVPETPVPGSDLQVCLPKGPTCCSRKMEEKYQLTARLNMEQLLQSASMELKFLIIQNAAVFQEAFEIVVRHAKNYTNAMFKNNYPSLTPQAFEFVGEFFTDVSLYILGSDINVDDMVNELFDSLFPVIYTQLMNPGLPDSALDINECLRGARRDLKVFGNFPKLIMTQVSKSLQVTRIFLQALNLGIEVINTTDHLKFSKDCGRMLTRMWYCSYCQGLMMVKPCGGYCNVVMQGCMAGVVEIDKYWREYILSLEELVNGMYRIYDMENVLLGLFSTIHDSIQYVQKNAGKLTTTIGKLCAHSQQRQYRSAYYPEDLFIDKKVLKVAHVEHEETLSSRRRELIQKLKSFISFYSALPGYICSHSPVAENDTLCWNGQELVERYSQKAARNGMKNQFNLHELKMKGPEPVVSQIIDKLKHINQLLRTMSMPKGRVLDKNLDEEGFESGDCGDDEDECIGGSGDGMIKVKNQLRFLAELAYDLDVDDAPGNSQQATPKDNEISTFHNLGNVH
MEASURED_METRIC: kon (M⁻¹ s⁻¹)
Answers are plain numbers, in M⁻¹ s⁻¹.

Worked examples, 2 binders total:
{"BINDER": "PIE-G3G (designed binder, C-terminal Strep-tag II; also called Lcn2 mutein; not shown: C-terminal Strep-tag II) QDSTSDLIPAPPLSKVPLQQNFQDNQFHGKWYVVGMAGNASLREDKDPRKMNATIYELKEDKSYNVTKVRFWHKKCYYSITTFVPGSQPGEFTLGDIKSYPGWTSYLVRVVSTNYNQHAMVFFKGVRQNREWFSITLYGRTKELTSELKENFIRFSKSLGLPENHIVFPVPIDQCIDGSAWSHPQFEK", "MEASURED_METRIC": "kon", "MEAS_VALUE": "1.42e+06"}
{"BINDER": "PIE-G3A (designed binder, Made in E. coli from phNGAL98 with a C-terminal Strep-tag II; also called Lcn2 mutein; not shown: C-terminal Strep-tag II) QDSTSDLIPAPPLSKVPLQQNFQDNQFHGKWYVVGIAGNWILREDKDPPKMRATIYELKEDKSYNVTRVRFDEKKCGYGIATFVPGSQPGEFTLGVIKSRPGITSDLVRVVSTNYNQHAMVFFKFVKQNREYFGITLYGRTKELTSELKENFIRFSKSLGLPENHIVFPVPIDQCIDGSAWSHPQFEK", "MEASURED_METRIC": "kon", "MEAS_VALUE": 160000}

With those in mind, consider the next binder.
Field request: kon | item: PIE-G3D (designed binder, C-terminal Strep-tag II; also called Lcn2 mutein; not shown: C-terminal Strep-tag II) QDSTSDLIPAPPLSKVPLQQNFQDNQFHGKWYVVGMAGNARLREDKDPVKMTATIYELKEDKSYNVTAVQFRLKKCQYGITTFVPGSQPGEFTLGDIKSIPGLTSMLVRVVSTNYNQHAMVFFKRVRQNREFFDITLYGRTKELTSELKENFIRFSKSLGLPENHIVFPVPIDQCIDGSAWSHPQFEK 781000

Entry source: patent US20130296258A1
